Reported MIC by item:
Tested on: Escherichia coli
Procedure Details: Antibacterial activity against Escherichia coli harboring pNYC plasmid expressing blaKPC gene by Etest method in presence of beta-lactamase inhibitor clavulanic acid
Type: functional
Give the number; µg/mL is assumed, so skip it.

Below: 4 compounds and their reported MIC.
C[C@@H](O)[C@H]1C(=O)N2C(C(=O)O)=C(S[C@@H]3CN[C@H](C(=O)N(C)C)C3)[C@H](C)[C@H]12 = 0.25
C[C@@H](O)[C@H]1C(=O)N2C(C(=O)O)=C(S[C@@H]3CN[C@H](C(=O)Nc4cccc(C(=O)O)c4)C3)[C@H](C)[C@H]12 = 0.05
CO/N=C(\C(=O)N[C@@H]1C(=O)N2C(C(=O)O)=C(COC(C)=O)CS[C@H]12)c1csc(N)n1 = 2
CC1(C)S[C@@H]2[C@H](NC(=O)[C@H](N)c3ccc(O)cc3)C(=O)N2[C@H]1C(=O)O = 32

// switching to the query compound
Suppose we examine the compound C[C@@H](O)[C@H]1C(=O)N2C(C(=O)O)=C(SCCNC=N)C[C@H]12 [IMIPENEM ANHYDROUS] ; what MIC value has been reported?
2
